The measurements presented in this section are drawn from patent EP4768471A1.

Target: human urate transporter 1 (hURAT1) (Homo sapiens)
Construct: host or cells: Flp-In-T-REx-293 (HEK293-derived), doxycycline-induced
Sequence (Q96S37 whole entry): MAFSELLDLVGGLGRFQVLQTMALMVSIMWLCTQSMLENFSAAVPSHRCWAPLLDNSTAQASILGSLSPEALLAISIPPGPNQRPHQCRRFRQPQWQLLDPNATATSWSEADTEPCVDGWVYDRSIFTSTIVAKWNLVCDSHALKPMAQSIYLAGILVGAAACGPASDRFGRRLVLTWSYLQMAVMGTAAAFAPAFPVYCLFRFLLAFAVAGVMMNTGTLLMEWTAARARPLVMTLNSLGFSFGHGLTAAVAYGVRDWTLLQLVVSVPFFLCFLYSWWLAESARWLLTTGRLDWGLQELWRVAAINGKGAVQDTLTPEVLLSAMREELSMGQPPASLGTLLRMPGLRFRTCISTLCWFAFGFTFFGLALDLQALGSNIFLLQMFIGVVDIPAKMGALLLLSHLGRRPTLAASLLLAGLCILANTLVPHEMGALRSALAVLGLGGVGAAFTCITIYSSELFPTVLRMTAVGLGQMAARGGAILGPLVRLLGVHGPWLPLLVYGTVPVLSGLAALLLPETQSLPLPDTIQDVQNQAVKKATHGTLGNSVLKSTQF
Test: Inhibitory activity against urate transporter URAT1 (14C-uric acid uptake in Flp-In-T-REx-293-hURAT1 cells)
Assay type: cell-based
Settings: Flp-In-T-REx-293-hURAT1 cells, 50 µmol/L 14C-uric acid, 5 min at 37°C; read-out: IC50
Description: Inhibitory activity of each compound against urate transporter URAT1 was tested. […] The cells were resuspended in the DMEM and then counted, and subsequently prepared into a cell suspension with a proper density. […] The lysate was transferred to a 96-well plate, and then 200 µL of UltimaGold XR scintillation cocktail was added, and radioactivity was measured using a MicroBeta^2 (PerkinElmer). […]
pIC50: −log10 of the molar value.
EXPERIMENTAL_READOUT: pIC50

COMPOUND	MEASURED_TARGET	pIC50
CC(C)(Sc1ccncc1Cc1ccc(C#N)c2ccccc12)C(=O)O [CDER167, reference compound]	human urate transporter 1 (hURAT1) (Homo sapiens)	< 6.00
CC(C)(Sc1ccncc1-c1ccc(C#N)c2ccccc12)C(=O)O [Verinurad, reference compound]	human urate transporter 1 (hURAT1) (Homo sapiens)	6.00 to 6.30
CC(C)(Sc1ccccc1Cn1cc(C#N)c2cncnc21)C(=O)O [Compound F-08]	human urate transporter 1 (hURAT1) (Homo sapiens)	6.30 to 7.00
N#Cc1cn(Cc2cc(Cl)ccc2SC2(C(=O)O)CCC2)c2ncccc12 [Compound F-27]	human urate transporter 1 (hURAT1) (Homo sapiens)	6.30 to 7.00
COc1ccc(SC2(C(=O)O)CCC2)c(Cn2cc(C#N)c3cccnc32)c1 [Compound F-30]	human urate transporter 1 (hURAT1) (Homo sapiens)	6.30 to 7.00

Q: So what does the record say about pIC50 for N#Cc1cn(Cc2cc(Br)ccc2SC2(C(=O)O)CCC2)c2ncccc12 [Compound F-28] ?
Ans: 6.30 to 7.00

Q: For the compound CC(C)(Sc1ccccc1Cn1cc(C#N)c2cnccc21)C(=O)O [Compound F-05] , what pIC50 is on record?
Ans: > 7.00

Q: Please give the measured pIC50 for this compound: COc1ccc(SC(C)(C)C(=O)O)c(Cn2cc(C#N)c3ccccc32)c1 [Compound F-13]
Ans: 6.30 to 7.00

Q: # query: pIC50 of entry CC(C)(Sc1ccc(Cl)cc1Cn1cc(C#N)c2ccccc21)C(=O)O [Compound F-10]
Ans: 6.30 to 7.00

Q: So what does the record say about pIC50 for CC(C)(Sc1ccc(Br)cc1Cn1cc(C#N)c2ccccc21)C(=O)O [Compound F-11] ?
Ans: 6.30 to 7.00

###

IC50 listing for selected compounds.
molecular target: human urate transporter 1 (hURAT1) (Homo sapiens); construct: host or cells: Flp-In-T-REx-293 (HEK293-derived), doxycycline-induced; test: Inhibitory activity against urate transporter URAT1 (14C-uric acid uptake in Flp-In-T-REx-293-hURAT1 cells); assay type: cell-based

SMILES_STRUCTURE	VALUE_REPORTED
CC(C)(Sc1ccccc1Cn1cc(C#N)c2c(F)cccc21)C(=O)O	100 to 500 nM
N#Cc1cn(Cc2cc(F)ccc2SC2(C(=O)O)CCC2)c2ncccc12	100 to 500 nM
N#Cc1cn(Cc2ccccc2SC2(C(=O)O)CCC2)c2ncccc12	100 to 500 nM

# input for lookup
Q: // IC50 lookup, key: `CC(C)(Sc1ccccc1Cn1cc(C#N)c2cccnc21)C(=O)O`
Ans: < 100 nM
